As shown below, each of these compounds has a reported pKi value.
- ASSAYED TARGET: AT2 receptor (Homo sapiens, UniProt P50052)
- Construct: expressed in transfected cells; host or cells: HEK-293
- Sequence (P50052 whole entry): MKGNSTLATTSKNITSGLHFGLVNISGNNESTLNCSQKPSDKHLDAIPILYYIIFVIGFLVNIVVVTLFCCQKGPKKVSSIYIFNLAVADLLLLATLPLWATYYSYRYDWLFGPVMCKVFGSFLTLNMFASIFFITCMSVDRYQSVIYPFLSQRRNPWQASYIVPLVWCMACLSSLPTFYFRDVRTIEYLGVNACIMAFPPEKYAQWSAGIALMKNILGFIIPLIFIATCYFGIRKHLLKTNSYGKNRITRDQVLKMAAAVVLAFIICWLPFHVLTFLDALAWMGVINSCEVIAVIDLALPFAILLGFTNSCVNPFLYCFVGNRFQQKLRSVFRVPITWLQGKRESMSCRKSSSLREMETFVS
- ASSAY REMARKS: HEK-293 cell AT2 receptor binding assay ([125I]-CGP42112 displacement, HEK293-hAT2R)
pKi here is simply -log10 of the concentration when that concentration is written in mol/L.

Guide cases for pKi, answers given:
# RECORD SMILES, ASSAYED TARGET, pKi
data = [
    ("CCCCOC(=O)NS(=O)(=O)c1ccc(CCCC)cc1-c1cccc(Cn2cncn2)c1", "AT2 receptor (Homo sapiens, UniProt P50052)", 6.60),
    ("CCCCc1ccc(S(=O)(=O)NC(=O)OC(C)C)c(-c2cccc(Cn3cccn3)c2)c1", "AT2 receptor (Homo sapiens, UniProt P50052)", 6.86),
    ("CC(C)COC(=O)NS(=O)(=O)c1ccc(CC(C)C)cc1-c1cccc(Cn2cncn2)c1", "AT2 receptor (Homo sapiens, UniProt P50052)", 6.49),
]

compound CCCCC(=O)NS(=O)(=O)c1ccc(CC(C)C)cc1-c1cccc(Cn2cccn2)c1 , pKi observed: 5.94

response.value for CCCCOC(=O)NS(=O)(=O)c1ccc(CC(C)C)cc1-c1cccc(Cn2cncn2)c1 (field: pKi) = 6.56
